The values you see were collected from the supplement of paper PMC10567573.

B1: PRKX (parent)
chain: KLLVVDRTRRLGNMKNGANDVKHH

# Variants of: B1
# experiment.description: protein stability index of a GFP-peptide fusion (GPS, HEK-293T) (PSI 1-6); higher = more stable;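 further: lentivirally expressed fusions sorted by FACS into six bins by GFP to DsRed ratio, PSI derived from sequencing read proportions per bin multiplied by bin number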
# cond: c terminus: a fixed tail appended
quantity: protein stability index
One number for each entry.

{"mutation.label": "K22T", "observed": 2.99}
{"mutation.label": "H23M", "observed": 2.33}
{"mutation.label": "N19S", "observed": 3.16}
{"mutation.label": "L11D", "observed": 3.84}
{"mutation.label": "A18D", "observed": 3.85}
{"mutation.label": "K15Y", "observed": 2.68}

Hey, can you go through the list below and give me protein stability index for every item?
1. G17F
2. L11M
3. R7K
4. L3S
5. D6I
6. M14D
7. H24L

Result:
1: 1.81; 2: 2.77; 3: 2.56; 4: 4.29; 5: 2.87; 6: 4.09; 7: 2.11
